Target desc: Mab2-5G2, monoclonal anti-idiotypic antibody recognizing an antibody that specifically interacts with PRRSV glycoprotein 5 (GP5)
Procedure details: ELISA
Recorded conditions: chain shown with the change; Mab2-5G2 as plate-coating protein; anti-PRA rabbit serum for detection; parent: est. 1.6; read off a plot
Value type: response (OD450)
Answers are plain numbers, in OD450.

Prompt: Using known records, supply response for PRA, C-terminal domain of MYH9 (recombinant, wild type) K1673A (protein) MRELEDTRASREEILAQAKENEAKLKSMEAEMIQLQEELAAAERAKRQAQQERDELADEIANSSGKGALALEEKRRLEARIAQLEEELEEEQGNTELVNDRLKKANLQIDQINTDLNLERSHAQKNENARQQLERQNKELKVKLQEMEGTVKSKYKASIAALEAKIAQLEEQLDNETKERQAACKQVRRAEKKLKDVLLQVDDERRNAEQYKDQADKASTRLKQLKRQLEEAEEEAQRANASRRKLQRELEDATETADAMNREVSSLKNKLRRGDLPFVVPRRMGRKGAGDCSDEEVDGKADGAEAKAAE
Completion: 0.4
